- System: NCI-H1395
- method_summary: relative viability (nuclei count vs DMSO), 5 days (fraction); higher = more cells survive
- test_conditions: first compound 0.4 µM
value_kind: relative viability
Enter the number alone.

O=C(O)c1ccc(-c2c[nH]c3ncc(-c4ccccc4)cc23)cc1C1CCCC1 + CS(=O)(=O)CCNCc1ccc(-c2ccc3ncnc(Nc4ccc(OCc5cccc(F)c5)c(Cl)c4)c3c2)o1 [Lapatinib] (partner 2 µM) : 0.867
O=C(O)c1ccc(-c2c[nH]c3ncc(-c4ccccc4)cc23)cc1C1CCCC1 + COc1cccc2cc(-c3nc([C@H]4CC[C@H](C(=O)O)CC4)n4ncnc(N)c34)[nH]c12 [OSI-027] (partner 0.5 µM) : 0.516
O=C(O)c1ccc(-c2c[nH]c3ncc(-c4ccccc4)cc23)cc1C1CCCC1 + Cc1cc(Nc2cc(N3CCN(C)CC3)nc(Sc3ccc(NC(=O)C4CC4)cc3)n2)n[nH]1 [Tozasertib] (partner 0.1 µM) : 0.676
O=C(O)c1ccc(-c2c[nH]c3ncc(-c4ccccc4)cc23)cc1C1CCCC1 + CS(=O)(=O)N1CCN(Cc2cc3nc(-c4cccc5[nH]ncc45)nc(N4CCOCC4)c3s2)CC1 [Pictilisib] (partner 1 µM) : 0.625

Here is another molecule to look at.
Suppose we examine the molecule O=C(O)c1ccc(-c2c[nH]c3ncc(-c4ccccc4)cc23)cc1C1CCCC1 + N=C(N)NC(=N)NCCc1ccccc1 [Phenformin] (partner 250 µM) ; what relative viability value has been reported?
0.413

----------
Recorded relative viability for the following molecules
- Tested on: NCI-H1648
- method_summary: relative viability (nuclei count vs DMSO), 5 days (fraction); higher = more cells survive
- test_conditions: first compound 0.8 µM
Enter the number alone.

C=C1C(=O)O[C@@H](CCCCCCCC)[C@@H]1C(=O)O [C-75] + Cc1cc(Nc2cc(N3CCN(C)CC3)nc(Sc3ccc(NC(=O)C4CC4)cc3)n2)n[nH]1 [Tozasertib] (partner 0.1 µM) : 0.465

Suppose we examine the molecule C=C1C(=O)O[C@@H](CCCCCCCC)[C@@H]1C(=O)O [C-75] + O=C(CCCCCCC(=O)Nc1ccccc1)NO [Vorinostat] (partner 1 µM) ; what relative viability value has been reported?
0.283

Another molecule to check: C=C1C(=O)O[C@@H](CCCCCCCC)[C@@H]1C(=O)O [C-75] + Nc1ncn([C@H]2C[C@H](O)[C@@H](CO)O2)c(=O)n1 [Decitabine] (partner 2 µM)
0.473

Another molecule to check: Oc1nc(-c2ccc(C(F)(F)F)cc2)nc2c1CSCC2 [XAV939] + Nc1nc2[nH]cc(CCc3ccc(C(=O)N[C@@H](CCC(=O)O)C(=O)O)cc3)c2c(=O)[nH]1 [Pemetrexed] (partner 0.2 µM)
0.667

Another molecule to check: Oc1nc(-c2ccc(C(F)(F)F)cc2)nc2c1CSCC2 [XAV939] + Nc1ncn([C@H]2C[C@H](O)[C@@H](CO)O2)c(=O)n1 [Decitabine] (partner 2 µM)
0.386

----------
Recorded relative viability for the following molecules
- Test system: NCI-H3122
- method_summary: relative viability (nuclei count vs DMSO), 5 days (fraction); higher = more cells survive
- test_conditions: first compound 0.8 µM

Examples with their reported relative viability follow.
Oc1nc(-c2ccc(C(F)(F)F)cc2)nc2c1CSCC2 [XAV939] + COc1cc2c(Oc3ccc(NC(=O)C4(C(=O)Nc5ccc(F)cc5)CC4)cc3F)ccnc2cc1OCCCN1CCOCC1 [Foretinib] (partner 0.25 µM) : 0.942
Oc1nc(-c2ccc(C(F)(F)F)cc2)nc2c1CSCC2 [XAV939] + C[C@@H](Oc1cc(-c2cnn(C3CCNCC3)c2)cnc1N)c1c(Cl)ccc(F)c1Cl [Crizotinib] (partner 1 µM) : 0.238
Oc1nc(-c2ccc(C(F)(F)F)cc2)nc2c1CSCC2 [XAV939] + CC(=O)Nc1cccc(-n2c(=O)n(C3CC3)c(=O)c3c(Nc4ccc(I)cc4F)n(C)c(=O)c(C)c32)c1 [Trametinib] (partner 0.02 µM) : 0.237
C=C1C(=O)O[C@@H](CCCCCCCC)[C@@H]1C(=O)O [C-75] + CC(=O)Nc1cccc(-n2c(=O)n(C3CC3)c(=O)c3c(Nc4ccc(I)cc4F)n(C)c(=O)c(C)c32)c1 [Trametinib] (partner 0.02 µM) : 0.218
Oc1nc(-c2ccc(C(F)(F)F)cc2)nc2c1CSCC2 [XAV939] + Nc1nc2[nH]cc(CCc3ccc(C(=O)N[C@@H](CCC(=O)O)C(=O)O)cc3)c2c(=O)[nH]1 [Pemetrexed] (partner 0.2 µM) : 0.198
Oc1nc(-c2ccc(C(F)(F)F)cc2)nc2c1CSCC2 [XAV939] + N=C(N)NC(=N)NCCc1ccccc1 [Phenformin] (partner 250 µM) : 0.338
C=C1C(=O)O[C@@H](CCCCCCCC)[C@@H]1C(=O)O [C-75] + CS(=O)(=O)N1CCN(Cc2cc3nc(-c4cccc5[nH]ncc45)nc(N4CCOCC4)c3s2)CC1 [Pictilisib] (partner 1 µM) : 0.545
Oc1nc(-c2ccc(C(F)(F)F)cc2)nc2c1CSCC2 [XAV939] + Cc1nc(NC(=O)N2CCC[C@H]2C(N)=O)sc1-c1ccnc(C(C)(C)C(F)(F)F)c1 [Alpelisib] (partner 2 µM) : 0.757

Suppose we examine the molecule C=C1C(=O)O[C@@H](CCCCCCCC)[C@@H]1C(=O)O [C-75] + Cc1nc(Nc2ncc(C(=O)Nc3c(C)cccc3Cl)s2)cc(N2CCN(CCO)CC2)n1 [Dasatinib] (partner 0.075 µM) ; what relative viability value has been reported?
0.583

Another molecule to check: C=C1C(=O)O[C@@H](CCCCCCCC)[C@@H]1C(=O)O [C-75] + CC(=O)c1c(C)c2cnc(Nc3ccc(N4CCNCC4)cn3)nc2n(C2CCCC2)c1=O [Palbociclib] (partner 0.5 µM)
0.153

The reported measurements were obtained from the supplement of paper PMC10307832.
